Data provenance: paper PMC7566566

- study.system: T1, Hera (Thermus thermophilus, UniProt O07897 1-510)
- T1 sequence: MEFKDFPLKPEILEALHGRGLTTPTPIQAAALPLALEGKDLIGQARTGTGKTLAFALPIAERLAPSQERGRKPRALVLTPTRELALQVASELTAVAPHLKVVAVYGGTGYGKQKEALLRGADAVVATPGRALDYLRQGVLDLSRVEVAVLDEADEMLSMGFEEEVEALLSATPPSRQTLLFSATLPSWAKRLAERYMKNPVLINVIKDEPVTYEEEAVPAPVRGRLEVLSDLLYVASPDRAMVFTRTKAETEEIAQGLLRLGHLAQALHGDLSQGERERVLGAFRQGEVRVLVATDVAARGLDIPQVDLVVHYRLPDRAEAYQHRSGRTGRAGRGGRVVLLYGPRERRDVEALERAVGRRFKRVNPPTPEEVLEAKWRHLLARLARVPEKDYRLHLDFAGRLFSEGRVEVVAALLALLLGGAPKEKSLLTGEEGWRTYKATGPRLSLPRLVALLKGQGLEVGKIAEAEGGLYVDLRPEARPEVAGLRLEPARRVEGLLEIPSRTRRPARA
- assay.method.text: competition
attribute.measured: binding result

>  <binder>
CUGGCUUGCCCGGGAGAUCCUGGGCUACCCCGA (ssRNA) [RNA 9]

>  <attribute.measured>
binding result

>  <measurement>
binds

$$$$
>  <binder>
AGGTCCCAA (ssDNA) [9mer DNA]

>  <attribute.measured>
binding result

>  <measurement>
no binding

$$$$
>  <binder>
AAAAAAAAAAAAAAAAAAAAAAAAAAAAAAAAAAAAAAAAAAAAAAAAAA (ssRNA) [50A]

>  <attribute.measured>
binding result

>  <measurement>
no binding

$$$$
>  <binder>
UAGGGGCGUGUGGGCCCACCCGGCGUGGCGCUGGCUCCACC (ssRNA) [RNA 2]

>  <attribute.measured>
binding result

>  <measurement>
binds

$$$$

Next up:
Form field binding result, entry UUUGGGGCUGCGGGGCUGGACCCCACGGGCGCCGCCACCC (ssRNA) [RNA 13] : binds
